Listing: pEC50 of selected compounds
TEST SYSTEM: human activated kallikrein enzyme (Homo sapiens)
TEST DESCRIPTION: Plasma kallikrein inhibition, fluorogenic PFR-AMC substrate, 500 pM activated kallikrein format
Format: biochemical
STUDY CONDITIONS: 500 pM activated kallikrein, 300 uM PFR-AMC, 30 min preincubation, 10 min reaction; read-out: Primary Dose Response Assay: Average EC50
pEC50: −log10 of the molar value.
MEASURED ATTRIBUTE: pEC50

compound="CN(C)CCc1cc(C2CC2)cn2cc(CNc3ccnc(NC(=O)[C@H]4C[C@@H]4c4cccc(Cl)c4)c3)nc12 [Example 598]" test_system="human activated kallikrein enzyme (Homo sapiens)" result="> 9.00"
compound="Cc1ccnc([C@H]2C[C@@H]2C(=O)Nc2cc(F)cc(OCc3cn4cc(C5CC5)cc(N5CC(=O)N(C)C5=O)c4n3)n2)n1 [Example 675]" test_system="human activated kallikrein enzyme (Homo sapiens)" result="> 9.00"
compound="O=C(Nc1nsc(NCc2cn3cc(C4CC4)ccc3n2)n1)[C@H]1C[C@@H]1c1cccc(Cl)c1 [Example 610]" test_system="human activated kallikrein enzyme (Homo sapiens)" result="8.00 to 9.00"
compound="O=C(Nc1cc(NCc2cn3cc(C4CC4)ccc3n2)ncn1)[C@H]1C[C@@H]1c1cc(Cl)ccc1C(F)(F)F (racemic) [Example 52]" test_system="human activated kallikrein enzyme (Homo sapiens)" result="6.00 to 7.00"
compound="CN1CCN(c2cc(C3CC3)cn3cc(CNc4ccnc(NC(=O)[C@H]5C[C@@H]5c5cccc(Cl)c5)n4)nc23)CC1 [Example 88]" test_system="human activated kallikrein enzyme (Homo sapiens)" result="> 9.00"
compound="Cc1csc([C@H]2C[C@@H]2C(=O)Nc2cc(NCc3cn4cc(C5CC5)cc(N5CC(=O)N(C)C5=O)c4n3)ncn2)n1 (racemic) [Example 446]" test_system="human activated kallikrein enzyme (Homo sapiens)" result="> 9.00"

====

TEST SYSTEM: plasma kallikrein (Homo sapiens)
Construct: from tissue
TEST DESCRIPTION: Neat human plasma assay, FXIIa contact pathway-activated, PFR-AMC substrate
Type: biochemical
STUDY CONDITIONS: citrated human plasma 78% final, 10 nM human FXIIa, 100 μM PFR-AMC; read-out: Human Plasma Assay: IC90
Listing: IC90 of selected molecules
MEASURED ATTRIBUTE: IC90

molecule=Cc1ccnc([C@H]2C[C@@H]2C(=O)Nc2cc(NCc3cn4cc(C5CC5)cc(-n5c(=O)n(C)c(=O)n5C)c4n3)ncn2)n1 result="400 to 1500 nM"
molecule="Cc1ccnc([C@@]2(F)C[C@@H]2C(=O)Nc2cc(N[C@H](C)c3cn4cc(C5CC5)cc(N5CC(=O)N(C)C5=O)c4n3)nc(C)n2)n1 (racemic)" result="400 to 1500 nM"
molecule="CN(C)C1CC(=O)N(c2cc(C3CC3)cn3cc(CNc4cc(NC(=O)[C@H]5C[C@@H]5c5cccc(Cl)c5)ncn4)nc23)C1 (stereo partly drawn)" result="< 400 nM"

====

Listing: pEC50 of selected compounds
TEST SYSTEM: human activated kallikrein enzyme (Homo sapiens, UniProt P03952)
Sequence (P03952 391-638 limits assumed): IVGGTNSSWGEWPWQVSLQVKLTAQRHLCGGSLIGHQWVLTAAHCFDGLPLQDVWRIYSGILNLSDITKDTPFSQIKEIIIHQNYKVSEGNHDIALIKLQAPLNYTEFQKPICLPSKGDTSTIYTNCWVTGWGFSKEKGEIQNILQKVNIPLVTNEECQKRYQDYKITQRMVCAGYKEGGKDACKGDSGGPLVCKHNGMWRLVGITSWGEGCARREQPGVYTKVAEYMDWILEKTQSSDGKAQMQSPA
Sequence (P03952 20-390 partner limits assumed): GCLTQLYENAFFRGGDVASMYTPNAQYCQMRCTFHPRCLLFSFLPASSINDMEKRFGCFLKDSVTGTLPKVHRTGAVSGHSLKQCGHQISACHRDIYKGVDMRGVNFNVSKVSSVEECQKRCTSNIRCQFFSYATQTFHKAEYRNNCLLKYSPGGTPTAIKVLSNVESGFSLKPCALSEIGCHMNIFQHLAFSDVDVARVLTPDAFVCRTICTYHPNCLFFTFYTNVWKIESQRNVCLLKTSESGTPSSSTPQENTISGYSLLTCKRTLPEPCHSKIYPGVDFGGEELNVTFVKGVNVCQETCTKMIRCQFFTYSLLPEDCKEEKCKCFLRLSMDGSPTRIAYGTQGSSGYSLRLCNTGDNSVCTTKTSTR
TEST DESCRIPTION: Plasma kallikrein inhibition, fluorogenic PFR-AMC substrate, 500 pM activated kallikrein format
Type: biochemical
STUDY CONDITIONS: 500 pM activated kallikrein, 300 uM PFR-AMC, 30 min preincubation, 10 min reaction; read-out: Primary Dose Response Assay: Average EC50
pEC50: −log10 of the molar value.
MEASURED ATTRIBUTE: pEC50

compound="O=C(Nc1nsc(NCc2cn3cc(C4CC4)ccc3n2)n1)[C@H]1C[C@@H]1c1cc(Cl)ccn1 (racemic)" result="8.00 to 9.00"
compound="Cc1ccnc([C@H]2C[C@@H]2C(=O)Nc2ncnc3nn(Cc4cn5cc(C6CC6)cc(N6CC(=O)N(C)C6=O)c5n4)cc23)n1 (single isomer, unassigned) [Example I-634]" result="> 9.00"
compound="O=C(Nc1cc2c(cn1)ncn2Cc1cn2cc(C3CC3)ccc2n1)[C@H]1C[C@@H]1c1cccc(Cl)c1 (racemic)" result="7.00 to 8.00"
compound=CNCCc1cc(C2CC2)cn2cc(CNc3ccnc(NC(=O)[C@H]4C[C@@H]4c4cccc(Cl)c4)c3)nc12 result="> 9.00"
compound="CC(O)c1cc(C2CC2)cn2cc(CNc3ccnc(NC(=O)[C@H]4C[C@@H]4c4cccc(Cl)c4)c3)nc12 (stereo partly shown)" result="> 9.00"
compound=CCN1C(=O)CN(c2cc(C3CC3)cn3cc(CNc4cc(NC(=O)[C@H]5C[C@@H]5c5nccc(C)n5)ncn4)nc23)C1=O result="> 9.00"
compound=O=C(Nc1nc(O)nc(NCc2cn3cc(C4CC4)ccc3n2)n1)[C@H]1C[C@@H]1c1cccc(Cl)c1 result="> 9.00"
compound="O=C(Nc1cc(NCc2cn3cc(C4CC4)cc(N4CCCC4=O)c3n2)ncn1)[C@H]1C[C@@H]1c1cccc(Cl)c1 (racemic) [Example 58]" result="8.00 to 9.00"
compound=O=C(Nc1cc(NCc2cn3cc(C4CC4)cc(NC4COC4)c3n2)ccn1)[C@H]1C[C@@H]1c1cccc(Cl)c1 result="> 9.00"
compound="COc1ccc(C#N)c([C@H]2C[C@@H]2C(=O)Nc2cc(NCc3cn4cc(C5CC5)ccc4n3)ncn2)c1F (racemic)" result="7.00 to 8.00"
compound=Cc1ccnc([C@H]2C[C@@H]2C(=O)Nc2ccc(C#N)c(OCc3cn4cc(C5CC5)cc(N5CC(=O)N(C)C5=O)c4n3)c2)n1 result="> 9.00"
compound=Cc1ccnc([C@H]2C[C@@H]2C(=O)Nc2cc(OCc3cn4cc(C5CC5)cc(N5CC(=O)N(C)C5=O)c4n3)nc(C)n2)n1 result="> 9.00"
compound=Cc1ccnc([C@H]2C[C@@H]2C(=O)Nc2cc3c(cn2)nnn3Cc2cn3cc(C4CC4)cc(N4CC(=O)N(C)C4=O)c3n2)n1 result="> 9.00"

====

TEST SYSTEM: plasma kallikrein (Homo sapiens)
Construct: from tissue
TEST DESCRIPTION: Neat human plasma assay, FXIIa contact pathway-activated, PFR-AMC substrate
Type: biochemical
STUDY CONDITIONS: citrated human plasma 78% final, 10 nM human FXIIa, 100 μM PFR-AMC; read-out: Human Plasma Assay: IC90
Listing: IC90 of selected compounds
MEASURED ATTRIBUTE: IC90

compound=CC(=O)Nc1cc(C2CC2)cn2cc(CNc3cc(NC(=O)[C@H]4C[C@@H]4c4cccc(Cl)c4)ncn3)nc12 result="1.5 to 10 µM"
compound="O=C(Nc1cc(NCc2cn3cc(C4CC4)ccc3n2)ccn1)[C@H]1C[C@@H]1c1cc(Cl)ccn1 (single isomer, unassigned) [Example I-270]" result="1.5 to 10 µM"
compound="O=C(Nc1cc(NCc2cn3cc(C4CC4)ccc3n2)ccn1)[C@H]1C[C@@H]1c1cccc(Cl)c1 (single isomer, unassigned)" result="1.5 to 10 µM"

====

TEST SYSTEM: plasma kallikrein (Homo sapiens, UniProt P03952)
Construct: from tissue
Sequence (P03952 391-638 limits assumed): as the sequence (P03952 391-638 limits assumed) above
Sequence (P03952 20-390 partner limits assumed): as the sequence (P03952 20-390 partner limits assumed) above
TEST DESCRIPTION: Neat human plasma assay, FXIIa contact pathway-activated, PFR-AMC substrate
Type: biochemical
STUDY CONDITIONS: citrated human plasma 78% final, 10 nM human FXIIa, 100 μM PFR-AMC; read-out: Human Plasma Assay: IC90
MEASURED ATTRIBUTE: IC90

compound="CN1CCN(c2cc(C3CC3)cn3cc(CNc4ccnc(NC(=O)[C@H]5C[C@@H]5c5cccc(Cl)c5)c4)nc23)CC1=O [Example 130]" test_system="plasma kallikrein (Homo sapiens, UniProt P03952)" measured_attribute=IC90 result="400 to 1500 nM"
compound="Cc1ccnc([C@H]2C[C@@H]2C(=O)Nc2cc(NCc3cn4cc(C5CC5)cc(N5CC(=O)N(CC(F)(F)F)C5=O)c4n3)ncn2)n1 (racemic) [Example 388]" test_system="plasma kallikrein (Homo sapiens, UniProt P03952)" measured_attribute=IC90 result="400 to 1500 nM"
compound="N#Cc1ccc(Cl)cc1[C@H]1C[C@@H]1C(=O)Nc1cc(NCc2cn3cc(C4CC4)cc(COCCO)c3n2)ccn1 (racemic) [Example 289]" test_system="plasma kallikrein (Homo sapiens, UniProt P03952)" measured_attribute=IC90 result="1500 to 10000 nM"

====

Listing: IC90 of selected compounds
TEST SYSTEM: plasma kallikrein (Homo sapiens)
Construct: from tissue
TEST DESCRIPTION: Neat human plasma assay, FXIIa contact pathway-activated, PFR-AMC substrate
Format: biochemical
STUDY CONDITIONS: citrated human plasma 78% final, 10 nM human FXIIa, 100 μM PFR-AMC; read-out: Human Plasma Assay: IC90
MEASURED ATTRIBUTE: IC90

compound="Cc1cncc([C@H]2C[C@@H]2C(=O)Nc2cc(NCc3cn4cc(C5CC5)cc(N5CC(=O)N(C)C5=O)c4n3)ncn2)n1 (racemic)" result="400 to 1500 nM"
compound=O=C(Nc1cc(NCc2cn3cc(C4CC4)cc(N4CCNCC4=O)c3n2)ncn1)[C@H]1C[C@@H]1c1cccc(Cl)c1 result="400 to 1500 nM"
compound="O=C(Nc1cc(NCc2cn3cc(C4CC4)cc(N4CC5CC5C4=O)c3n2)ncn1)[C@H]1C[C@@H]1c1cc(Cl)ccn1 (stereo partly drawn)" result="< 400 nM"
compound="CN(C)C1CCN(c2cc(C3CC3)cn3cc(CNc4cc(NC(=O)[C@H]5C[C@@H]5c5cccc(Cl)c5)ncn4)nc23)C1=O (stereo partly drawn)" result="400 to 1500 nM"
compound=CN1CCN(c2cc(C3CC3)cn3cc(CNc4cc(NC(=O)[C@H]5C[C@@H]5c5cccc(Cl)c5)ncn4)nc23)CC1 result="400 to 1500 nM"
compound="Nc1ccc(Cl)cc1[C@H]1C[C@@H]1C(=O)Nc1cc(NCc2cn3cc(C4CC4)ccc3n2)ccn1 (racemic)" result="> 48000 nM"

Cited source: patent US20240228488A1
